procedure_text: gradient 5% acetonitrile 3 min, to 50% in 2 min, to 85% in 15 min, held 3 min, 100 µL/min
assay_setup: column: Zorbax Extend-C18 2.1 x 50 mm; eluents: water / acetonitrile, 0.1% formic acid
RP-LC retention time for assorted molecules
Supply the numeric figure in s, leaving out any unit text.

Completed entries (count: 5):
In [3]: df
Out[3]:
                                   molecule       recorded_metric  uom  experimental_result
0  Cc1cnn(Cc2nc(-c3ccc(NC(=O)c4ccsc4)cc3)oc2C)c1  RP-LC retention time    s                  876
1  Cc1ccc2nc(-c3ccc(C)c(NC(=O)C(C)C)c3)[nH]c2c1  RP-LC retention time    s                  654
2      Cc1ccc(NC(=O)Cc2nnc(-c3cnccn3)o2)cc1  RP-LC retention time    s                  698
3  COc1cc(NC(=O)N2CCC(n3c(C)nc4cccnc43)CC2)cc(OC)c1  RP-LC retention time    s                  637
4  CCS(=O)(=O)N1CC(=O)N(c2cccc(Cl)c2C)C(C)(C(=O)NCc2ccc(F)cc2)C1 (centres undefined)  RP-LC retention time    s                  913

Consider the additional molecule presented here.
Entry COc1ccc(OC)c(CNC(=O)Cn2ccc3ccc(-c4nnc(C)o4)cc32)c1 has what RP-LC retention time?
770

----------
procedure_text: gradient 5% acetonitrile 3 min, to 50% in 2 min, to 85% in 15 min, held 3 min, 100 µL/min
assay_setup: column: Zorbax Extend-C18 2.1 x 50 mm; eluents: water / acetonitrile, 0.1% formic acid
recorded_metric: RP-LC retention time
# do not omit the unit; it follows the number

Completed entries (count: 2):
                                   compound  experimental_result
0         CCn1nccc1C(=O)NCCn1c(C)cnc1C1CCC1                574 s
1  COc1ccc(-c2nc3n(n2)C2(CCCCC2)[C@@H]2CCCC[C@@H]2N3C(=O)c2cccs2)cc1               1270 s

Entry Cc1cccc(Cc2c(C)nc3c(C(=O)O)cnn3c2C)c1 has what RP-LC retention time?
788 s

Entry CCn1nc(CNC(=O)C2CCC2)c2ccccc21 has what RP-LC retention time?
748 s

----------
procedure_text: gradient 5% acetonitrile 3 min, to 50% in 2 min, to 85% in 15 min, held 3 min, 100 µL/min
assay_setup: column: Zorbax Extend-C18 2.1 x 50 mm; eluents: water / acetonitrile, 0.1% formic acid
RP-LC retention time for assorted compounds
Supply the numeric figure in s, leaving out any unit text.

                                   compound  uom  experimental_result
0  COc1ccc(NC(=O)C2CCCN(S(=O)(=O)c3c[nH]c(C(=O)N4CCCCCC4)c3)C2)cc1 (centres undefined)    s                  842
1  CCC(=O)c1cn(CC(=O)NCc2ccc3c(c2)OCCCO3)c2ccccc12    s                  794
2  CCNC(=O)Nc1ccc2c(c1)CN(Cc1cn(C(C)C)c3ccc(OC)cc13)CCO2    s                  726
3  CC1CCCN(CCCNC(=O)c2cccc3c2SCCC3=O)C1 (centres undefined)    s                  590
4  O=C1CCCc2cc(S(=O)(=O)NCC3CCN(Cc4ccc(F)cc4)CC3)ccc2N1    s                  603

Entry O=C(CCc1nc(N2CCCCC2)c2c(-c3ccc(F)cc3)noc2n1)N1CCOCC1 has what RP-LC retention time?
902

Entry CC(=O)Nc1nc(-c2ccc3c(c2)N(C)C(=O)C(C)O3)cs1 (centres undefined) has what RP-LC retention time?
739

Entry CC(C)c1ccc(S(=O)(=O)c2cnc(N3CCN(C4CCCCC4)CC3)nc2N)cc1 has what RP-LC retention time?
767

Entry CCN1C(=O)C2(CCN(C(=O)c3ccnn3CC)CC2)c2ccccc21 has what RP-LC retention time?
789

Entry Cc1nc(C)c(-c2ccc(=O)n(CCNS(=O)(=O)c3ccc4c(c3)OCCO4)n2)s1 has what RP-LC retention time?
642

Entry CC(C)c1ccc(S(=O)(=O)c2cnc(N3CCC4(CC3)OCCO4)nc2N)cc1 has what RP-LC retention time?
1020

Entry CCCn1ccc2sc(C)c(C(=O)NC(C)c3ccccc3)c2c1=O (centres undefined) has what RP-LC retention time?
900

Entry COc1ccc(NC(=O)Cn2nc3n(c2=O)CCCC3)c(OC)c1 has what RP-LC retention time?
642

Entry Cc1nc([N+](=O)[O-])cn1-c1nc2ccccn2c1[N+](=O)[O-] has what RP-LC retention time?
753

Entry Cc1cc(N2CCN(C)CC2)nc2ccc(NC(=O)Nc3ccccc3Br)cc12 has what RP-LC retention time?
609

----------
procedure_text: gradient 5% acetonitrile 3 min, to 50% in 2 min, to 85% in 15 min, held 3 min, 100 µL/min
assay_setup: column: Zorbax Extend-C18 2.1 x 50 mm; eluents: water / acetonitrile, 0.1% formic acid
RP-LC retention time for assorted molecules
Supply the numeric figure in s, leaving out any unit text.

Completed entries (count: 4):
                            smiles_notation  uom  experimental_result
0  COc1ccc(NC(=O)Nc2nccn(-c3cccc(F)c3)c2=O)cc1OC    s                  798
1  Cn1cc(C2=CCN(C(=O)NC(C)(C)C)CC2)c2cccnc21    s                  604
2  Cc1ccc(-c2nc3n(CC(=O)N4CCOCC4)c4c(c(=O)n3n2)CCC4)cc1    s                  699
3  CCN(CC)c1ccc(-c2noc(CN3CCN(c4ccccn4)CC3)n2)cn1    s                  575

Consider the additional molecule presented here.
Entry CCOc1ccccc1CNC(=O)C1CCN(S(=O)(=O)c2ccc3[nH]c(=O)ccc3c2)CC1 has what RP-LC retention time?
750

----------
procedure_text: gradient 5% acetonitrile 3 min, to 50% in 2 min, to 85% in 15 min, held 3 min, 100 µL/min
assay_setup: column: Zorbax Extend-C18 2.1 x 50 mm; eluents: water / acetonitrile, 0.1% formic acid
Records here are stratified by RP-LC retention time; strata: label 0 = under 800 s, label 1 = from 800 s up to 900 s, label 2 = 900 s and over

>>> print(df.to_string())
                                   compound  qualitative_label
0  CC(=O)N1CCc2ccccc2C1C(=O)NC1CCCCCC1 (stereo not given)            label 1

Determine which band this compound sits in: COc1ccc(-c2nnc(-c3ccc(C)c(S(=O)(=O)N4CCCCC4)c3)o2)cc1OC
label 2

Determine which band this compound sits in: O=C(CCc1csc(NC(=O)NC2CCCCC2)n1)NCc1cccs1
label 0

Determine which band this compound sits in: O=C(Cn1c(=O)n(C2CCCC2)c2ncccc21)Nc1ccc(Br)cc1
label 2

----------
procedure_text: gradient 5% acetonitrile 3 min, to 50% in 2 min, to 85% in 15 min, held 3 min, 100 µL/min
assay_setup: column: Zorbax Extend-C18 2.1 x 50 mm; eluents: water / acetonitrile, 0.1% formic acid
Mark Y for RP-LC retention time under 900 s, N if at or over.

Study these solved cases before continuing.
In [3]: df
Out[3]:
                                   molecule  qualitative_label
0  CC1CCN(C(=O)Cn2nc(-c3nc(-c4cccc(Cl)c4)no3)ccc2=O)CC1                  N
1  CCCCCn1c(=O)c2c(nc3n2CCN3c2ccc(OC)cc2)n(C)c1=O                  N
2  CCC1Oc2ccc(C)cc2N(CC(=O)NCCN(C)C)C1=O (centres undefined)                  Y
3  Cc1nn(C)c2nc(OC(C)C(=O)Nc3ccccc3F)cc(C(F)(F)F)c12 (centres undefined)                  N
4  CCOc1ccc(-c2cc3c(=O)n(Cc4nc(-c5ccc(SC)cc5)no4)ncn3n2)cc1                  N
5  COc1cccc(-c2noc(C3CC(=O)N(c4ccc5c(c4)OCO5)C3)n2)c1OC (centres undefined)                  Y
6  COCc1cc(=O)n(Cc2ncc(C)c(OC)c2C)c(N2CCCC2)n1                  Y

Switching to the query record.
Please check: RP-LC retention time for CCOc1cc2ncc(C#N)c(Nc3ccc(F)c(Cl)c3)c2cc1NC(=O)/C=C/CN(C)C , strictly under 900 s or not?
Y

// data source = the METLIN SMRT retention time set (Domingo-Almenara et al. 2019)
